system: HT29 colon; experiment: NCI-60 one-dose screen, 48 h; conditions: 10 µM unless noted
Compounds without any hit were thinned out: in the full panel of roughly 83,000, 20% have a hit. Calls of active or inactive are those of the source. The calls were made as follows: active = growth percent below 10; inactive = the rest.
Your answer must be one of the following: active, inactive

Clc1ccc(-c2nc(-c3c[nH]c4ncccc34)cs2)cc1 ... inactive
O=C(CCl)Nc1ccc2c(Nc3cc(O)ccc3Cl)ncnc2c1 ... active

Query: Record request — test call for CCOC(=O)Cn1c(=O)c2c3ccccc3n(C)c2n2nnc(-c3ccccc3)c12
Result: inactive

Query: Assay outcome for C/C(C=O)=C\c1ccc2c(c1)OCO2 : what was it?
Result: inactive

Query: Short answer needed: outcome of this test for Nc1nc(C(=O)N/N=C/c2ccc(N3CCOCC3)cc2)nn1-c1ccc(S(N)(=O)=O)cc1 ?
Result: inactive

Query: Which result was noted for this molecule in the test: CN1CCN(c2ccc(NC(=O)c3cncnc3Nc3ccc4c(ccn4Cc4cccc(F)c4)c3)cc2)CC1
Result: active

Query: Record request — test call for COc1ccc2cc(Cn3cc[n+](Cc4ccc5ccccc5c4)c3)ccc2c1
Result: active

Query: What did this assay record as the result for COc1ccc(-c2cc(-c3ccc(OC)cc3)nc(NCCCNc3ccnc4cc(Cl)ccc34)n2)cc1 ?
Result: active

Query: Please let me know the test result on file for Cc1ccc(-c2nc(C(Cl)Cl)nc3cc(C)nn23)cc1 .
Result: active

Query: Which outcome was entered for the molecule CCCCCCC(CCCC)COC(=O)c1ccc(Cl)cc1 (stereo unspecified) in this test?
Result: inactive

Query: recorded result category for COc1ccc(C(c2cc(OC)c(OC)c(OC)c2)N2CCCC2)cc1 (stereo unspecified) in this test
Result: inactive

----------
system: SK-MEL-5 melanoma; test: NCI-60 one-dose screen, 48 h (100 = growth as untreated, 0 = no growth, -100 = all killed); conditions: 10 µM unless noted
Compounds without any hit were thinned out: in the full panel of roughly 83,000, 20% have a hit.
Assign class 1 to entries whose growth meets or exceeds 70%; assign class 0 to the rest.

COc1ccc(-c2ccc(=O)oc2C#Cc2cc(OC)c(OC)c(OC)c2)cc1O ... class 0
N/C(=N\c1nc2ccccc2s1)NC(=NC1CCCCC1)NC1CCCCC1 ... class 0
O=C(CCCCNC(=O)c1cc(=O)c(O)co1)Nc1ccccc1 ... class 1
Nc1c(C(=O)Nc2ccncc2)sc2nc3c(cc12)CCCCC3 ... class 0
CCN(CC)CCCC(C)Nc1ccc2cc(OC)ccc2n1 (stereo not given) ... class 1

Query: # check: growth of CCN1C(=O)N(CC)C2C1NN=c1s/c(=C3\C(=O)N(CCc4ccccc4)c4ccccc43)c(=O)n12 (stereo not given) is greater than or equal to 70%
Result: class 0

Query: Could you verify whether the entry Cc1ccccc1OCC(O)COc1ccccc1C shows growth of no less than 70%?
Result: class 1

Query: Answer whether growth of CCOC(=O)Cn1c(=O)c2c3ccccc3n(C)c2n2nnc(-c3ccccc3)c12 is greater than or equal to 70%.
Result: class 1

Query: API: above_or_equal(metric=growth, cutoff=70%) for item CC1(C)CC[C@]2(C(=O)N3CCOCC3)CC[C@]3(C)C(=CC[C@@H]4[C@@]5(C)C/C(=C/c6ccncc6)C(=O)C(C)(C)[C@@H]5CC[C@]43C)[C@@H]2C1
Result: class 0

----------
This listing pairs molecules with measured growth.
test system: SK-MEL-28 melanoma; assay: NCI-60 one-dose screen, 48 h (100 = growth as untreated, 0 = no growth, -100 = all killed); settings: 10 µM unless noted
This is part of a sample that, as a whole, favours compounds with a hit. Of some 83,000 tested, about 20% had one in any assay. The source made the active and inactive calls. How the source made its calls: active means growth percent below 10; inactive means the rest.

CCCCCCNc1nc(NCCCCCC)c2[nH]c(NCCCCCC)nc2n1 ... 98.2% (inactive)
CCSC1=CC(=O)c2ccccc2C1=O ... 36.7% (inactive)
O=C(Nc1cccc(NC(=O)C2CCCCC2)c1)c1ccccn1 ... 103% (inactive)
COc1ccc2c(c1)c(-c1ccc(-c3cn(C)c4ccc(OC)cc34)[nH]1)cn2C ... -20.1% (active)

Query: Output reported growth of the molecule CCN(CC)c1ccc(/C=N/NC(=O)c2ccc(Nc3ccnc(C(F)(F)F)c3)cc2)c(O)c1 on SK-MEL-28 melanoma.
Result: 47.4% (inactive)

Query: Provide growth, tested on SK-MEL-28 melanoma, for CC1=CCC[C@@H]2C1(C)CC[C@H](C)[C@@]2(C)CC1=CC(=O)C(SC(C)(C)C)=CC1=O (stereo partly drawn) .
Result: 94.2% (inactive)

Query: Specify the recorded growth for Brc1ccc(-c2cnc3nonc3n2)cc1 , system: SK-MEL-28 melanoma.
Result: 104% (inactive)

Query: Report its growth with SK-MEL-28 melanoma as the test system: CCCCn1sc(=O)n(Cc2ccc(CNC(=O)OCc3ccc4c(Cl)cc(Cl)c(O)c4n3)cc2)c1=O
Result: 69.2% (inactive)

Query: Quote SK-MEL-28 melanoma growth for entry CN1CCN(c2ccc(NC(=O)c3cncnc3Nc3ccc4c(ccn4Cc4cccc(F)c4)c3)cc2)CC1 .
Result: -85.2% (active)

Query: // output growth; input CCCCCCOC(=O)CC1=C(C)/C(=C/c2[nH]c(-c3ccc[nH]3)cc2OC)N=C1C ; system SK-MEL-28 melanoma
Result: -64.9% (active)

----------
test system: MOLT-4 leukemia; experiment: NCI-60 one-dose screen, 48 h (100 = growth as untreated, 0 = no growth, -100 = all killed); details: 10 µM unless noted
This is part of a sample that, as a whole, favours compounds with a hit. Of some 83,000 tested, about 20% had one in any assay.
Measured growth accompanies every entry in the list below.
Quick note: give the figure in %, leave out the unit.

Consider the following illustrative entries.
O=C1NC(=C(Cl)Cl)/C(=N/S(=O)(=O)NCCc2c[nH]c3ccccc23)N1 ... 18
COc1cc(-c2nc3occn3c2-c2ccnc(NCCCNS(=O)(=O)c3ccccc3)n2)ccc1F ... 11
Cc1cccc(-n2c(C)nc3ccc(N4CCCNC4=O)cc3c2=O)c1 ... 110
C=C1C(=O)O[C@H]2[C@H]1CC/C(COC(=O)NCc1ccc(Cn3c(=O)sn(-c4ccc(OC)cc4)c3=O)cc1)=C\CC[C@@]1(C)O[C@@H]21 ... -12.2
COc1cc(-c2nc(NC(C)=O)sc2-c2ccnc(NCCNS(=O)(=O)c3ccccc3)n2)ccc1Cl ... 15.5

Query: Param request: growth | system MOLT-4 leukemia | item COc1ccc2nc3cc(Cl)ccc3c(NCCN)c2c1
Result: -40.9

Query: Give growth only, for CC1=NN(c2ccc(Cl)cc2)CC1(C)N=O (stereo not given) , using MOLT-4 leukemia data.
Result: 44.6

Query: Print MOLT-4 leukemia growth for Cc1nc2sc(C(=O)Nc3cccc(Cl)c3)c(N)c2cc1C(O)c1ccccc1 (stereo not given) .
Result: 14.5

Query: Please look at CC/C=C1/C(=O)C=C[C@@H]1C/C=C\CCCC(=O)OC and tell me its recorded growth on MOLT-4 leukemia.
Result: 3.09

Query: Under MOLT-4 leukemia: report growth of COc1ccc(Nc2ncccc2NC(=O)c2cn(Cc3cccc(Oc4ccccc4)c3)nn2)cc1OC .
Result: 48.1

----------
system: DU-145 prostate; test: NCI-60 one-dose screen, 48 h; conditions: 10 µM unless noted
About 83,000 compounds went through this panel and 20% of them were active in at least one assay; those are over-represented in the sample as a whole. The source made the active and inactive calls. Rule for the calls: active = growth percent below 10; inactive = the rest.
The reply should name one outcome from yes (1) = active, no (0) = inactive

Answered cases to consult:
O=c1ccc2nc(C(F)(F)F)nn(-c3ccccc3)c-2c1 ... no (0)
C=CCCC(=O)N1C=CC(=O)[C@H](O)[C@@H]1/C=C/c1ccccc1 ... no (0)
Cc1cscc(C)c1=S ... yes (1)
Cn1cc(-c2nn3cc(-c4ccccc4)nc3s2)c2ccccc21 ... no (0)
COc1ccc2nc3ccccc3c(NCc3ccccc3)c2c1 ... no (0)

Query: Please share the test call associated with Clc1nn2c(Cn3cnc4c(NCc5ccccc5)ncnc43)nnc2c2ccccc12 .
Result: no (0)

----------
system: T-47D breast; assay: NCI-60 one-dose screen, 48 h; conditions: 10 µM unless noted
About 83,000 compounds went through this panel and 20% of them were active in at least one assay; those are over-represented in the sample as a whole. Calls of active or inactive are those of the source. Rule for the calls: active = growth percent below 10; inactive = the rest.
Output constraint: value belongs to 1 (active), 0 (inactive)

Reference set (5 entries):
CCOC(=O)CSc1nc2sc3c(c2c(=O)n1-c1ccc([N+](=O)[O-])cc1)CCCCC3 ... 0
COc1ccc(C(C)=O)cc1S(N)(=O)=O ... 0
Cc1cc(C)c(-c2c(O)c(Br)c(-c3c(C)cc(C)c(Br)c3C)c(O)c2Br)c(C)c1Br ... 1
COC(=O)c1nc(-c2ccccc2)oc1S(=O)(=O)N1CCC(C(N)=O)CC1 ... 0
CCCCSCC(=O)c1ccccc1 ... 0

Now for a further compound.
Query: Called result for CC[C@@H](c1ccc2cc(OC)ccc2c1)C(C)(C)C(=O)F
Result: 0
